# Tested on: grass carp pituitary cells
# procedure.text: Signal transduction: pathway inhibitors on GnRH-regulated reproductive gene mRNA
# Type: cell-based, grass carp (Ctenopharyngodon idellus)
# condition.info: cotreated with GnRH2, 24 h; U73122 10 μM, GF109203X 20 μM, 2-APB 100 μM, MDL12330A 20 μM, H89 20 μM, nifedipine 10 μM, calmidazolium 1 μM, KN62 5 μM
quantity.kind: blockade of GnRH2-induced GtHα, LHβ, FSHβ, INHBa, and SgII mRNA expression

Reference set, count: 5
compound	result
O=S(=O)(NCCNC/C=C/c1ccc(Br)cc1)c1cccc2cnccc12	could also be blocked
Cl.c1ccc(C2CCCC2NC2=NCCCCCCCCCCC2)cc1 (stereo not shown) [MDL12330A]	could also be blocked
NCCOB(c1ccccc1)c1ccccc1	could block
COc1ccc2c(c1)CC[C@@H]1[C@@H]2CC[C@]2(C)[C@@H](NCCCCCCN3C(=O)C=CC3=O)CC[C@@H]12	could block
Clc1ccc(C(c2ccc(Cl)cc2)n2cc[n+](CC(OCc3ccc(Cl)cc3Cl)c3ccc(Cl)cc3Cl)c2)cc1 (stereo not shown)	could also block

Lab book: blockade of GnRH2-induced GtHα, LHβ, FSHβ, INHBa, and SgII mRNA expression of CN([C@@H](Cc1ccc(OS(=O)(=O)c2cccc3cnccc23)cc1)C(=O)N1CCN(c2ccccc2)CC1)S(=O)(=O)c1cccc2cnccc12 noted as could also block

Entry CN(C)CCCn1cc(C2=C(c3c[nH]c4ccccc34)C(=O)NC2=O)c2ccccc21 [GF109203X] — recorded blockade of GnRH2-induced GtHα, LHβ, FSHβ, INHBa, and SgII mRNA expression = could block

----------
# Test system: grass carp pituitary cells
# procedure.text: Signal transduction: pathway inhibitors on GnRH-regulated reproductive gene mRNA
# Format: cell-based, grass carp (Ctenopharyngodon idellus)
# condition.info: cotreated with GnRH3, 24 h; U73122 10 μM, GF109203X 20 μM, 2-APB 100 μM, MDL12330A 20 μM, H89 20 μM, nifedipine 10 μM, calmidazolium 1 μM, KN62 5 μM
quantity.kind: blockade of GnRH3-induced GtHα, LHβ, FSHβ, INHBa, and SgII mRNA expression

# count of solved cases: 5
molecule	result
CN([C@@H](Cc1ccc(OS(=O)(=O)c2cccc3cnccc23)cc1)C(=O)N1CCN(c2ccccc2)CC1)S(=O)(=O)c1cccc2cnccc12	could also block
COc1ccc2c(c1)CC[C@@H]1[C@@H]2CC[C@]2(C)[C@@H](NCCCCCCN3C(=O)C=CC3=O)CC[C@@H]12	could block
O=S(=O)(NCCNC/C=C/c1ccc(Br)cc1)c1cccc2cnccc12	could also be blocked
CN(C)CCCn1cc(C2=C(c3c[nH]c4ccccc34)C(=O)NC2=O)c2ccccc21 [GF109203X]	could block
NCCOB(c1ccccc1)c1ccccc1	could block

The value of blockade of GnRH3-induced GtHα, LHβ, FSHβ, INHBa, and SgII mRNA expression measured for the molecule Cl.c1ccc(C2CCCC2NC2=NCCCCCCCCCCC2)cc1 (stereo not shown) [MDL12330A] turned out to be could also be blocked

Per the records, this molecule ( Clc1ccc(C(c2ccc(Cl)cc2)n2cc[n+](CC(OCc3ccc(Cl)cc3Cl)c3ccc(Cl)cc3Cl)c2)cc1 (stereo not shown) ) has blockade of GnRH3-induced GtHα, LHβ, FSHβ, INHBa, and SgII mRNA expression equal to could also block
